molecular target: Amine oxidase [flavin-containing] B (Homo sapiens, UniProt P27338); assay: Inhibition of human recombinant soluble MAO-B expressed in Pichia pastoris incubated for 30 mins prior to substrate addition measured after 60 mins by MAO-Glo assay
Sequence (P27338 whole entry): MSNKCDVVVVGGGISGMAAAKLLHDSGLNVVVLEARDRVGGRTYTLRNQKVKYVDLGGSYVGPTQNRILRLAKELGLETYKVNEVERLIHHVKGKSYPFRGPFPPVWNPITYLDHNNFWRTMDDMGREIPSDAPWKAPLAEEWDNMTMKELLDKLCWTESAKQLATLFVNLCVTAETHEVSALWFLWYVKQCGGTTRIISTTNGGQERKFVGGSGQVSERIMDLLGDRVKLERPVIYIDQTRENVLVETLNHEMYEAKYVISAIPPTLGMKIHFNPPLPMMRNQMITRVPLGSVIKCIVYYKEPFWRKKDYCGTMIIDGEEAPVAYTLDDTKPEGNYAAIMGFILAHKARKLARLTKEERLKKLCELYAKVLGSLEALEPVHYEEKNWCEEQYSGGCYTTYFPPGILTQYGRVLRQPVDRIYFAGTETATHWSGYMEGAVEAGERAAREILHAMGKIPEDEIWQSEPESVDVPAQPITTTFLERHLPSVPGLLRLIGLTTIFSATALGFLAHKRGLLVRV
metric.name: Ki (nM)
Expressed in nM, but write only the number.

Qu. # input compound: "NCCNC(=O)c1ccc(Cl)cc1" ; wanted: its Ki
Ans. 32.2
